- measurementTarget: T1, human CD3 expressed on cells (Jurkat cells; human primary T cells) (human, UniProt P07766 23-207; P04234 22-171; P09693 23-182)
- T1 construct: whole, on cells
- T1 sequence (P07766 23-207, chain 1 of 3): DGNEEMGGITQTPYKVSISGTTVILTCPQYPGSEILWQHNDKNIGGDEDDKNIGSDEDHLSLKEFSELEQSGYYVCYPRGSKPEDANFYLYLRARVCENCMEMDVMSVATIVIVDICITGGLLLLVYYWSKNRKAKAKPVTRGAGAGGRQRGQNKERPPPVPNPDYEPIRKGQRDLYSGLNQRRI
- T1 sequence (P04234 22-171, chain 2 of 3): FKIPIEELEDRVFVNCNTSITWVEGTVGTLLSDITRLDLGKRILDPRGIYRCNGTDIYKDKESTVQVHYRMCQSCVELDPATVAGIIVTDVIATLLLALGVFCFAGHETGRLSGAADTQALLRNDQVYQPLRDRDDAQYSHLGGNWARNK
- T1 sequence (P09693 23-182, chain 3 of 3): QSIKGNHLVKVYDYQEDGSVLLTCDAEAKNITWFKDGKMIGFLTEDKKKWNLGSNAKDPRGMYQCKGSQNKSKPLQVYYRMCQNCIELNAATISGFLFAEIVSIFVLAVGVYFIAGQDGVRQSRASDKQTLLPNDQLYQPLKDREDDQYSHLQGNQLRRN
- measurementProtocol: flow cytometry, 25 nM, human primary T cells
readoutName: Binding (FOI)
A number alone suffices; assume FOI.

Example entries begin here.
INSERT INTO results (binder, readoutname, displayunit, recordedresult) VALUES
  ('mAb 199 (antibody, V domains shown, VH/VL only) VH: QVQLVESGGGVVQPGRSLRLSCAASGFTFSGYGMHWVRQAPGKGLEWVAIIYYNGKKEYYADSVKGRFTIFRDNSKNTLYLHMNSLRAEDTAVYYCTRGEGYNWFDPWGQGTLVTVSS VL: EIVMTQSPATLSVSPGERATLSCRASQSVSRNLAWYQQKPGQAPRLLIYGASTRATGIPARFSGSGSGTEFTLTISSLQSEDFAVYYCQQYNNWPLTFGGGTKVEIK', 'Binding (FOI)', 'FOI', 225),
  ('mAb 177 (antibody, V domains shown, VH/VL only; the printed VL holds a letter U) VH: EVQLVESGGGLVQPGMSLRLSCAASGFTFDDYTMHWVRQSPGKGLEWVAGISWNSGTIGYGDSMKGRFTISRDNAKNSLDLQMNSLRVEDTALYYCAKDTSGYGHYYYYFMDVWGKGTTVTVSS VL: DIQMTQSPSSLSASIGDRVSITCRTSQIINNYLNWYQQKPGKAPKLLIYSASSLQSGVPSRFSGSGSGTDFTLTLSSLQPEDFATYFCQQSYNFPITFGQGTRLELK', 'Binding (FOI)', 'FOI', 146);

Attention now turns to another entry.
Task item: Can you look up the measured Binding (FOI) of mAb 287 (antibody, V domains shown, VH/VL only) VH: EVQLVESGGGVVRPGGSLRLSCAASGFTFDDYGMSWVRQAPGKGLEWVSGISWNGGSTGYADSVKGRFTISRDNAKNSLYLQMNSLRAEDTALYHCARDGVPVVKRRYYYYYMDVWGKGTTVTVSS VL: EIVLTQSPDFQSVTPKEKVTITCRASQSIGSSLHWYQQKPDQSPKLLIKYASQSFSGVPSRFSGSGSGTDFTLTINSLEAEDAATYYCHQSASLPQTFGQGTKVEIK for me?
Reply: 107
